EXPERIMENTAL_SYSTEM: T1, human CD8αα homodimer, recombinant protein (Acro Biosystems) (human, UniProt P01732 22-182)
T1 construct: also called CD8αα antigen; biotinylated CD8α recombinant protein (CDA-H82E3)
T1 sequence (P01732 22-182 limits assumed): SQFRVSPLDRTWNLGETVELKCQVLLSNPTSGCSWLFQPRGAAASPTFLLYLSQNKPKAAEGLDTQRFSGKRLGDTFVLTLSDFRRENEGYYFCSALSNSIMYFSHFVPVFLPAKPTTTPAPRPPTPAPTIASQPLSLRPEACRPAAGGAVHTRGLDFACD
EXPERIMENT_SUMMARY: BLI kinetic assay, engineered F(ab') fragment

# BINDER, koff [s⁻¹]
data = [
    ("CBD1033.44 disulfide-engineered F(ab') analog (IgG1, truncated T238) (Fab, V domains shown, also called .44 design) VH: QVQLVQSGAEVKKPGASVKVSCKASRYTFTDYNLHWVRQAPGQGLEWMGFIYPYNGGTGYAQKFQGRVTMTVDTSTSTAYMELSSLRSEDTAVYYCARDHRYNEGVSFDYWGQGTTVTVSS VL: DIQLTQSPSSLSASVGDRATITCRASESVDGFGNSFMNWYQQKPGKAPKLLIYLASNLESGVPSRFSGSGSGTDFTLTISSVQPEDFATYYCQQNNEDPYTFGQGTKLEIKR", "8.88e-05"),
    ("CBD1033.45 disulfide-engineered F(ab') analog (IgG1, truncated T238, C233S) (Fab, V domains shown, also called .45 design) VH: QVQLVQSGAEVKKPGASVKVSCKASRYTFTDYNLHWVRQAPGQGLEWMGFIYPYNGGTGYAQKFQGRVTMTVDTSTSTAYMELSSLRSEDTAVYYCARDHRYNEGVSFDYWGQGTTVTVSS VL: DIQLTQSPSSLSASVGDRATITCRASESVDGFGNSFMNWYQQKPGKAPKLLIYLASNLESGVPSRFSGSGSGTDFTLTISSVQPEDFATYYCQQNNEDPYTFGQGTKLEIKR", 0.000117),
    ("CBD1033.37 disulfide-engineered F(ab') analog (IgG1-derived) (Fab, V domains shown, Engineered CH1-F174C / CK-S162C interchain disulfide; native disulfide removed; also called .37 design) VH: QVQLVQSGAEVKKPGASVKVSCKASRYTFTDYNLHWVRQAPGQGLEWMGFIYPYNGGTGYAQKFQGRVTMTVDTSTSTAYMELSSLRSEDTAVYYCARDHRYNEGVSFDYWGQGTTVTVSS VL: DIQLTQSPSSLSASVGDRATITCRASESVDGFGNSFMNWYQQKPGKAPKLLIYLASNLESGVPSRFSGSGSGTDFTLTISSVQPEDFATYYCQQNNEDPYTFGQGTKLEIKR", "6.28e-05"),
]

Origin of values: patent US20250195685A1
